# testedOn: M18 aspartyl aminopeptidase (Plasmodium falciparum 3D7)
# protocolDescription: inhibition of malaria M18 aspartyl aminopeptidase – biochemical, QFRET fluorogenic substrate, set 2, counter-screen for PfM17LAP inhibitor project, dose response (AID 602218)
# setupConditions: recombinant PfM18AAP, H-Glu-NHMec fluorogenic cleavage
pIC50: −log10 of the molar value. Records with an inconclusive call do not appear.
We use 5 as the dividing line for pIC50: on or above the line is rule met, below is rule not met.

input: Does pIC50 meet or surpass 5 for CCCCCCCCCC(=O)NO ?
output: rule not met

New cases:
input: Does pIC50 meet or surpass 5 for O=C(Cc1ccc(Oc2ccccc2)cc1)NO ?
output: rule met

input: Does pIC50 meet or surpass 5 for CCOc1ccc(CC(=O)NO)cc1 ?
output: rule not met

input: Does pIC50 meet or surpass 5 for CCCCOc1ccc(CCC(=O)NO)cc1 ?
output: rule not met

input: Does pIC50 meet or surpass 5 for COc1ccc(CC(=O)NO)cc1 ?
output: rule not met

###

# testedOn: M18 aspartyl aminopeptidase (Plasmodium falciparum 3D7)
# protocolDescription: inhibition of malaria M18 aspartyl aminopeptidase – biochemical, QFRET fluorogenic substrate, set 2, counter-screen for PfM17LAP inhibitor project, dose response (AID 602218)
# setupConditions: recombinant PfM18AAP, H-Glu-NHMec fluorogenic cleavage
Results filed as inconclusive are left out.
pIC50 values, listed per item
Remember the convention: pIC50 equals -log10 of concentration in molar.

input: Return value of pIC50 for input CCCCOc1ccc(C(=O)NO)cc1 , no commentary.
output: 4.90

New cases:
input: Return value of pIC50 for input O=C(Cc1ccc2c(c1)CCCC2)NO , no commentary.
output: 5.05

input: Return value of pIC50 for input Cc1ccc(CC(=O)NO)cc1 , no commentary.
output: 4.47

input: Return value of pIC50 for input CCCCOc1ccc(CC(=O)N(C)O)cc1 , no commentary.
output: 4.40

input: Return value of pIC50 for input CN(O)C(=O)Cc1ccc(OCc2ccccc2)cc1 , no commentary.
output: 4.53

input: Return value of pIC50 for input CC(C)(C(=O)NO)c1ccccc1 , no commentary.
output: 4.26

input: Return value of pIC50 for input COc1ccc(CCCC(=O)NO)cc1 , no commentary.
output: 4.84

input: Return value of pIC50 for input O=C(NO)c1cccc2ccccc12 , no commentary.
output: 5.00

input: Return value of pIC50 for input CCCCOc1ccc(CC(=O)NO)cc1 , no commentary.
output: 5.00

input: Return value of pIC50 for input CCCCOc1ccc(CNc2c(N(C)O)c(=O)c2=O)cc1 , no commentary.
output: 4.18

###

# testedOn: M18 aspartyl aminopeptidase (Plasmodium falciparum 3D7)
# protocolDescription: inhibition of malaria M18 aspartyl aminopeptidase – biochemical, QFRET fluorogenic substrate, set 2, counter-screen for PfM17LAP inhibitor project, dose response (AID 602218)
# setupConditions: recombinant PfM18AAP, H-Glu-NHMec fluorogenic cleavage
Results filed as inconclusive are left out.
pIC50 values, listed per item
Remember the convention: pIC50 equals -log10 of concentration in molar.

input: Provide M18 aspartyl aminopeptidase (Plasmodium falciparum 3D7) pIC50 reading for O=C(Cc1ccc(OCc2ccccc2)cc1)NO .
output: 5.02

input: Provide M18 aspartyl aminopeptidase (Plasmodium falciparum 3D7) pIC50 reading for CC(C)COc1ccc(CC(=O)NO)cc1 .
output: 4.94

API: the following record is the query input.
input: Provide M18 aspartyl aminopeptidase (Plasmodium falciparum 3D7) pIC50 reading for CCCCc1ccc(CC(=O)NO)cc1 .
output: 4.86
